target: Syk-cSH2 (Homo sapiens); construct: polyhistidine (N); made in house; host or cells: Escherichia coli BL21 (DE3) pLysS; assay: Fluorescence quenching vesicle binding assay, Syk-cSH2; details: Table 3; efficacy determined by the vesicle binding assay
Assay metric: Imax (%)

Compound	Result
CCOP(=O)(/C=C(\Nc1ccccn1)c1ccc(C)cc1)OCC	Imax (%) ≤ 10
CCOC(=O)/C=C(\NS(=O)(=O)c1ccccc1)c1ccc(C)cc1	Imax (%) ≤ 10
Cc1ccc(C(Nc2ncc(C)s2)C(=[N+]=[N-])C(=O)OC2CCCCC2)cc1 (stereo not drawn)	Imax (%) = 15
COc1ccc(C(Nc2ncccn2)C(=[N+]=[N-])C(=O)OC2CCCCC2)cc1 (stereo not drawn)	Imax (%) = 10
[N-]=[N+]=C(C(=O)OC1CCCCC1)C(Nc1ncccn1)c1cccs1 (stereo not drawn)	Imax (%) = 15
[N-]=[N+]=C(C(=O)OC1CCCCC1)C(Nc1ncccn1)c1ccccc1 (stereo not drawn)	Imax (%) = 10
Cc1ccc(C(Nc2cnccn2)C(=[N+]=[N-])C(=O)OC2CCCCC2)cc1 (stereo not drawn)	Imax (%) ≤ 10
CCOC(=O)C(=[N+]=[N-])C(Nc1ccccn1)c1ccc(C(F)(F)F)cc1 (stereo not drawn)	Imax (%) ≤ 10
Cc1ccc(C(Nc2ncccn2)C(=[N+]=[N-])C(=O)OC(C)(C)C)cc1 (stereo not drawn)	Imax (%) ≤ 10
[N-]=[N+]=C(C(=O)OC1CCCCC1)C(Nc1ccccn1)c1ccc(Br)cc1 (stereo not drawn)	Imax (%) ≤ 10

---

Target: Syk-cSH2 (Homo sapiens, UniProt P43405)
Construct: polyhistidine (N); made in house; host or cells: Escherichia coli BL21 (DE3) pLysS
Assay: Fluorescence quenching vesicle binding assay, Syk-cSH2
Conditions: Table 3; efficacy determined by the vesicle binding assay; read-out: IC50
Method: The membrane-binding assay is based on fluorescence quenching of EGFP fused to a SH2 domain by a dark quencher containing lipid, dabsyl-PE, incorporated in lipid vesicles. The plate reader assay was performed using the Synergy™ Neo spectrofluorometer at 25° C. […] Z′ factor for the assay system was determined as described^74. Imax and IC50 values of inhibitors were determined using the equation, I=Imax/(1+IC50/[I]) where I and [I] indicate % inhibition and inhibitor concentration, respectively. […]
pIC50: −log10 of the molar value.
// label = Y if pIC50 is not less than 5, otherwise N

Molecule	Qualitative label
CN(C)c1ccc(C(Nc2ncccn2)C(=[N+]=[N-])C(=O)OC2CCCCC2)cc1 (centres unmarked)	Y
CCOC(=O)C(=[N+]=[N-])C(Nc1ccccn1)c1ccc(C(F)(F)F)cc1 (centres unmarked)	Y
[N-]=[N+]=C(C(=O)OC1CCCCC1)C(Nc1ncccn1)c1ccncc1 (centres unmarked)	Y
Cc1ccc(C(Nc2cc(C)ccn2)C(=[N+]=[N-])C(=O)OC2CCCCC2)cc1 (centres unmarked)	Y
CCOC(=O)/C=C(\NS(=O)(=O)c1ccccc1)c1ccc(C)cc1	N

---

test system: phosphorylation of ERK1/2 and STAT3/5; test: Western blot of phosphorylation in HL60 cells; format: cell-based; conditions: RAS-mutated HL60 cells; 5 μM
Assay metric: inhibition of phosphorylation of ERK1/2 and STAT3/5

Compound	Result
[N-]=[N+]=C(C(=O)OC1CCCCC1)C(Nc1ncccn1)c1ccco1 (racemic) [WC35]	less active then WC36
[N-]=[N+]=C(C(=O)OC1CCCCC1)C(Nc1ncccn1)c1ccc[nH]1 (racemic) [WC38]	less active then WC36
